experimental-system: human His-PIM1 [2-313] (Homo sapiens, UniProt P11309)
Construct: purified human His-PIM1 [2-313] enzyme; His (N); purchased University of Dundee, Scotland; host or cells: baculovirus system
Sequence (P11309 2-313): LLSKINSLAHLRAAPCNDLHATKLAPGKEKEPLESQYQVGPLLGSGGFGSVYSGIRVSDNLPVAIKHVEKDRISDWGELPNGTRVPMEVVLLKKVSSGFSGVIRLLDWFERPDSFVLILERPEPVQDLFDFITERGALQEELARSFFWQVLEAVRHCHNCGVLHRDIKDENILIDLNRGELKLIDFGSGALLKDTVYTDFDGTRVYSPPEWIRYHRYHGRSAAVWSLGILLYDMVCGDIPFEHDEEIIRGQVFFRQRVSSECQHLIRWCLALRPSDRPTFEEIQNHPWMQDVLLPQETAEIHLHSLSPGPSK
test-method-notes: PIM1 in-vitro mobility shift assay (Caliper LC3000, FL-Ahx-Bad phosphorylation)
Type: biochemical
condition-notes: 1.5 h; percent inhibition at 0.3 uM compound; read-out: PIM1 % I at 0.3 uM
Where a name gives a salt, the structure may show the parent alone.
Give measured inhibition at 0.3 µM for each item. Keep answers brief.

Consider the following illustrative entries.
>  <compound>
N[C@@H]1CCCN(c2c(Cl)cccc2/C=C2\SC(=O)NC2=O)C1 [Example 122D, hydrochloride]

>  <experimental-system>
human His-PIM1 [2-313] (Homo sapiens, UniProt P11309)

>  <inhibition at 0.3 µM>
> 95%

$$$$
>  <compound>
COc1cccc(/C=C2\SC(=O)NC2=O)c1N1CC[C@H](NCCCN)C1

>  <experimental-system>
human His-PIM1 [2-313] (Homo sapiens, UniProt P11309)

>  <inhibition at 0.3 µM>
> 95%

$$$$

# context switch: different compound, same inhibition at 0.3 µM
Please look up its inhibition at 0.3 µM: NCCCC(=O)N1CCCN(c2ccccc2/C=C2\SC(=O)NC2=O)CC1 [Example 104, hydrochloride]
> 95%
